- target: UniProt Q9WUL6
- Sequence (Q9WUL6 329-675): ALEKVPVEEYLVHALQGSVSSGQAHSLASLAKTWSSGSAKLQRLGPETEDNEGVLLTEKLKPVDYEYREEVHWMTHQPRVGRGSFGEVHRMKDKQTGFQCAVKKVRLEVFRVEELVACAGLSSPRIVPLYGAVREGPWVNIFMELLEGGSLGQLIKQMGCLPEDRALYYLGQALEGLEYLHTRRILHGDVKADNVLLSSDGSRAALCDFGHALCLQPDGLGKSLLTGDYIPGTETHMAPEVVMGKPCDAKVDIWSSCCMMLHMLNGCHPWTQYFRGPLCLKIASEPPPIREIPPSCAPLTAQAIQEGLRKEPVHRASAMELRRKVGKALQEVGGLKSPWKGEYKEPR
propertyLabel: Ki

compound="CN1CC[C@@](O)(C#Cc2cccc(-n3nc(C(N)=O)c4ccccc43)c2)C1=O [NIK SMI2]" target="UniProt Q9WUL6" reportedmeasurement="0.84 nM"

---

- Test system: human B cells
- testName: Human B cell rhCD40L proliferation assay
- Type: cell-based
- testConditions: thymidine incorporation, day four; read-out: Human B cell anti-CD40 proliferation IC50
propertyLabel: IC50

compound="CN1CC[C@@](O)(C#Cc2cccc(-n3nc(C(N)=O)c4ccccc43)c2)C1=O [NIK SMI2]" reportedmeasurement="> 10 µM"
